Assay: logP by HPLC on reversed-phase column (C18), EEC Directive 79/831 Annex V.A8
Assay type: physicochemical
Settings: HPLC, reversed-phase C18, acetonitrile (0.1% formic acid)/water (0.09% formic acid) gradient
metric: chromatographic logP
Write no unit; give the number alone.

Query :: # chromatographic logP lookup, item "Cc1cc(C(F)(C(F)(F)F)C(F)(F)F)cc(C)c1-c1cn(-c2ccc(Cl)c(C(=O)NC3CC3)c2)nn1"
Result :: 4.19
